Tested on: Rb/E2F1-Dp-1 complex
method.notes: CDK6 mutant activity / drug resistance in NanoBiT assay, stable cell line #11
Assay type: cell-based, human
condition.details: CDK6 mutants, compared to the WT (being 100%)
parameter.measured: Luc activity (/wt) (%)
Please respond with the number in % and leave the unit unwritten.

Sample answers from the record:
>  <substance>
CDK6 P199L: CDK6 mutant from COSMIC database

>  <parameter.measured>
Luc activity (/wt)

>  <quantitative.result>
565

$$$$
>  <substance>
CDK6 R220S: CDK6 mutant from COSMIC database

>  <parameter.measured>
Luc activity (/wt)

>  <quantitative.result>
271

$$$$
>  <substance>
CDK6 R220C: CDK6 mutant from COSMIC database

>  <parameter.measured>
Luc activity (/wt)

>  <quantitative.result>
164

$$$$

Kindly consider the entry below.
Query: Give me measured Luc activity (/wt), please, for this substance: CDK6 R144H: CDK6 mutant from COSMIC database
Result: 267
